The reported measurements were obtained from patent US20240116985A1.

Target: full-length beta-Catenin (Uniprot ID P35222) (Homo sapiens (Human)) (UniProt P35222)
Sequence (P35222 2-781 limits assumed): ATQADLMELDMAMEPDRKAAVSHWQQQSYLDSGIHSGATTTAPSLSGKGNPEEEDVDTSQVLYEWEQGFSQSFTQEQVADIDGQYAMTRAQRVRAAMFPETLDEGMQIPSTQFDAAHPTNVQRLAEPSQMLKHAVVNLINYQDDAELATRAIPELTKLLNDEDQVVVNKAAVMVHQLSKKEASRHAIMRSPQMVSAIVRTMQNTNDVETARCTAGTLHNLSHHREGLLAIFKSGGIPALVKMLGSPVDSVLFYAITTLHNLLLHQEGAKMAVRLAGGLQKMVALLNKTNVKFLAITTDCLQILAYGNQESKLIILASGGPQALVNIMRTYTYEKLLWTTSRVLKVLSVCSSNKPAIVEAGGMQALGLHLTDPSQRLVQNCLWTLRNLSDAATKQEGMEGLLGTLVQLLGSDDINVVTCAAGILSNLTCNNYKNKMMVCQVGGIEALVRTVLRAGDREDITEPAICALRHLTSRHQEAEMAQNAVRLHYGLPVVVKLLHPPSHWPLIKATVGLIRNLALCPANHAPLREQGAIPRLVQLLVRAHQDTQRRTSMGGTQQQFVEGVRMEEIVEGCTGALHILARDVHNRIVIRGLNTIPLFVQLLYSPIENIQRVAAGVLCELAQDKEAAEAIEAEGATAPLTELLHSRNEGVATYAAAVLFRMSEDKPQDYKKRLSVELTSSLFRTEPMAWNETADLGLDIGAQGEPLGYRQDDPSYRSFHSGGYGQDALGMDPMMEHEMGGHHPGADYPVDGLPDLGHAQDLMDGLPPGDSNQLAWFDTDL
Test: cell-based or functional assay
Starred links: 1 amine or outer side, 2 acyl side, 3 side chain; linkers in the order of their positions; H or OH if unused. Positions of bridges follow the written chain, without caps; N, C: chain ends. Non-standard residues stand in square brackets, D forms with d. Primed or numbered codes have the meaning given here. PyrS2″ = (S)-3-amino-1-((pent-4-en-1-yloxy)carbonyl)pyrrolidine-3-carboxylic acid (stapling residue), C=CCCCOC(=O)N1CC[C@@](N[*:1])(C(=O)[*:2])C1; B5(5) = 2,2-bis(4-pentenyl)glycine, 2-amino-2-(pent-4-en-1-yl)hept-6-enoic acid (stitching residue), C=CCCCC(CCCC=C)(N[*:1])C(=O)[*:2]; Phe(2-Cl) = N[C@@H](Cc1ccccc1Cl)C(=O)O; Bta = N[C@@H](Cc1csc2ccccc12)C(=O)O; αAllylPro = C=CC[C@@]1(C(=O)O)CCCN1; Cha = N[C@@H](CC1CCCCC1)C(=O)O
Measured parameter: DLD1 reporter assay Abs IC50 (µM)
Report the figure in µM without appending any unit label.

## Input What value of DLD1 reporter assay Abs IC50 has been reported for the following binder? Ac-[αAllylPro]D[Cha][B5(5)]DDAAFS[PyrS2″][Phe(2-Cl)][Bta]Q-NH2 (staple 1-4, 4-11) [I-1044]
## Output 20
